Where these numbers come from: patent EP2344531B1

Listing of entries alongside the reported pIC50.
target: VEGF (vascular endothelial growth factor) (UniProt P15692-4 27-191, limits assumed, biotin label (Example 5)); assay: BioVeris ECL competition assay with a labeled competitor; legend: +++ = IC50 about 2 - 10 µM
Sequence (P15692 other isoform, or with tags, fused parts or gaps limits assumed): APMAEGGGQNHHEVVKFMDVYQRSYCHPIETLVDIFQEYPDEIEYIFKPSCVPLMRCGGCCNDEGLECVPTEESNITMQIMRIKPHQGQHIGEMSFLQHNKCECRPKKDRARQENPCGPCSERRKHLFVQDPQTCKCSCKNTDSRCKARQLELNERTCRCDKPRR
pIC50: −log10 of the molar value.

Query string: Assign pIC50 to the following record: BBIt-AV-V4 (BBIt-VEGF-V4-A13I-S25R-M27A-L29P-S31A-F50K-V52T, peptide KHSAKAE) (designed binder) DPDDESSKPCCDQCICTKSNPPQCRCRDARPNACHSACKSCACKHSAKAECKCTDITDFCYEPCKPSE
Result string: 5.00 to 5.70

Query string: Write down pIC50 measured for item VegKD-Q (BBIt-A13I-S25K-L29P-V52K with the VEGF-binding peptide VegKD KYDLYWW) (designed binder) DPDDESSKPCCDQCICTKSNPPQCRCKDMRPNSCHSACKSCICKYDLYWWCFCKDITDFCYEPCKPSE
Result string: 5.00 to 5.70

Query string: Query pIC50 for BBIt-AV-V2 (BBIt-VEGF-V2-A13I-S25R-M27A-L29P-S31A-F50K-V52T, peptide KTNPSGS) (designed binder) DPDDESSKPCCDQCICTKSNPPQCRCRDARPNACHSACKSCACKTNPSGSCKCTDITDFCYEPCKPSE
Result string: 5.00 to 5.70

Query string: Identify measured pIC50 corresponding to BBIt-AV-V6 (BBIt-VEGF-V6-A13I-S25R-M27A-L29P-S31A-F50K-V52T, peptide PVTKRVH) (designed binder) DPDDESSKPCCDQCICTKSNPPQCRCRDARPNACHSACKSCACPVTKRVHCKCTDITDFCYEPCKPSE
Result string: 5.00 to 5.70
